# TEST TARGET: SUV39H2 (Homo sapiens (Human), UniProt Q9H5I1)
# Sequence (Q9H5I1 whole entry): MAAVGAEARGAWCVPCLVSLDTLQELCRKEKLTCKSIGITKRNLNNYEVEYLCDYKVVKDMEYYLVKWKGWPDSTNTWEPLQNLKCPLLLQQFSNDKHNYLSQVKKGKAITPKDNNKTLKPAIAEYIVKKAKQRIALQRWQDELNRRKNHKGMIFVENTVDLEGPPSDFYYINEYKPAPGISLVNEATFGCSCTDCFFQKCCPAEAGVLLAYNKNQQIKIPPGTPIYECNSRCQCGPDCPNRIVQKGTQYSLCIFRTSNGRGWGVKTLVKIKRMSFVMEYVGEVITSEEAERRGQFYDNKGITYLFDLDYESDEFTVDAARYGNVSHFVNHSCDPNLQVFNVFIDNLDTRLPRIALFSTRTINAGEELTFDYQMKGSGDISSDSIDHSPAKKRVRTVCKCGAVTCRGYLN
# CONDITION SUMMARY: read-out: IC50 (μM) Suv 39H2 assay; enzyme assay
MEASURED ATTRIBUTE: IC50 (µM)
Answer with a number only, understood to be in µM.

Inquiry: So what does the record say about IC50 for `CCCS(=O)(=O)NC1CCN(c2ccn3cc(-c4cc(Cl)c(OC)cc4OC)nc3c2)CC1` ?
Reply text: 0.0104

Inquiry: Could you do the same for `COc1cc(OC)c(-c2cn3ccc(N4CCN(C(=O)OC(C)(C)C)CC4)cc3n2)cc1Cl` , please?
Reply text: 0.0291

Inquiry: Could you do the same for `COc1cc(OC)c(-c2cn3ccc(N4CCN(CCCN(C)C)C4=O)cc3n2)cc1Cl` , please?
Reply text: 0.0124

Inquiry: Could you do the same for `COc1ccc(CN[C@H]2CCN(c3ccn4cc(-c5cc(Cl)c(OC)cc5OC)nc4c3)C2)cc1` , please?
Reply text: 0.00881

Inquiry: Could you do the same for `COc1cc(OC)c(-c2cn3cc(NCCN)c(OC)cc3n2)cc1Cl` , please?
Reply text: 0.00271

Inquiry: Could you do the same for `COc1cc(OC)c(-c2nc3cc(N4CCN(C(=O)OC(C)(C)C)CC4)ccn3c2I)cc1Cl` , please?
Reply text: 0.00975

Inquiry: Could you do the same for `COc1cc(OC)c(-c2cn3ccc(C4CCNCC4)cc3n2)cc1Cl` , please?
Reply text: 0.0623

Inquiry: Could you do the same for `COc1cc(OC)c(-c2cn3ccc(N4CC[C@H](NCc5ccc(C(F)(F)F)cc5)C4)cc3n2)cc1Cl` , please?
Reply text: 0.0278

Inquiry: Could you do the same for `CCOP(=O)(CCN1CC=C(c2ccn3cc(-c4cc(Cl)c(OC)cc4OC)nc3c2)CC1)OCC` , please?
Reply text: 0.0696

Inquiry: Could you do the same for `COc1cc(OC)c(-c2cn3ccc(-c4ccc(C(=O)N5CCNCC5)cc4)cc3n2)cc1Cl` , please?
Reply text: 0.0383

Inquiry: Could you do the same for `COc1cc(OC)c(-c2cn3ccc(N4CCC(NS(C)(=O)=O)CC4)cc3n2)cc1Cl` , please?
Reply text: 0.00883

Inquiry: Could you do the same for `COc1cc(OC)c(-c2cn3ccc(N4CCC(CO)CC4)cc3n2)cc1Cl` , please?
Reply text: 0.0054

Inquiry: Could you do the same for `COc1cc(OCCCN(C)C)c(-c2cn3ccc(N4CCN(S(=O)(=O)C(C)C)CC4)nc3n2)cc1Cl` , please?
Reply text: 0.0655

Inquiry: Could you do the same for `CCCS(=O)(=O)N1CCN(c2ccn3cc(-c4cc(Cl)c(OC)cc4OC)nc3n2)CC1` , please?
Reply text: 0.0293

Inquiry: Could you do the same for COc1cc(OC)c(-c2cn3ccc(N4CCC(NC(=O)OC(C)(C)C)C4)cc3n2)cc1Cl (stereo not shown) , please?
Reply text: 0.00635

Inquiry: Could you do the same for `COc1cc(OCCCN(C)C)c(-c2cn3ccc(N4CCNCC4)nc3n2)cc1Cl` , please?
Reply text: 0.0619

----------
For each entry below, report its IC50 value.
# TEST TARGET: SUV39H2 (Homo sapiens (Human))
# TEST: biochemical
# Assay type: biochemical
# CONDITION SUMMARY: 3H-SAM 100 nM, H3 Histone Peptide 350 nM, room temperature 3 hours
# Experimental: Assay buffer (4 μL) was added into all the wells, including test compound and control wells (except for Sinefungin control wells), using the Multidrop Combi. The plate was centrifuged at 1000 rpm for 1 min. […] SUV39H2 (8 μL, final conc: optimized for each lot of the enzyme based on specific activity) was added by using the Multidrop Combi. […] The plate was loaded into the Trilux-Microbeta counter and a delayed read of 10 hours was made. The radioactive signal was measured at 1 min/well. […]
Structures can show the parent of a compound that is named as a salt.
Answer with a number only, understood to be in µM.

Inquiry: So what does the record say about IC50 for `COc1cc(OC)c(-c2cn3ccc(N[C@H]4C[C@H]5CC[C@@H](C4)N5Cc4ccncc4)cc3n2)cc1Cl` ?
Reply text: 0.0226

Inquiry: Could you do the same for CNC1CCN(c2ncc(N3CCN(c4ccn5cc(-c6cc(Cl)c(OC)cc6OC)nc5c4)CC3)cn2)CC1 [Example 396, dihydrochloride] , please?
Reply text: 0.0146

Inquiry: Could you do the same for `COc1cc(OC)c(-c2cn3ccc(N4CCN(c5nccc(N6CCN(C)CC6)n5)CC4)cc3n2)cc1Cl` , please?
Reply text: 0.012

Inquiry: Could you do the same for `COc1cc(OC)c(-c2cn3ccc(N4CCN(c5nccc(N6CCC(N)CC6)n5)CC4)cc3n2)cc1Cl` , please?
Reply text: 0.0159

Inquiry: Could you do the same for `COc1cc(OC)c(-c2cn3ccc(N4CCC[C@H](NCC5CCN(C(=O)OC(C)(C)C)CC5)C4)cc3n2)cc1Cl` , please?
Reply text: 0.027

Inquiry: Could you do the same for CNC1CCN(c2cc(N3CCN(c4ccn5cc(-c6cc(Cl)c(OC)cc6OC)nc5c4)CC3)ncn2)C1 (centres unmarked) , please?
Reply text: 0.0114

Inquiry: Could you do the same for CNC1CCCN(c2ncc(N3CCN(c4ccn5cc(-c6cc(Cl)c(OC)cc6OC)nc5c4)CC3)cn2)C1 (centres unmarked) , please?
Reply text: 0.0143

Inquiry: Could you do the same for `COc1cc(OC)c(-c2cn3ccc(N[C@H]4CC[C@@H](NCc5ccc(C#N)cc5)CC4)cc3n2)cc1Cl` , please?
Reply text: 0.0151

Inquiry: Could you do the same for COc1cc(OC)c(-c2cn3ccc(N4CCN(c5ccnc(N6CCC(CO)C6)n5)CC4)cc3n2)cc1Cl (centres unmarked) , please?
Reply text: 0.0262

Inquiry: Could you do the same for `COc1cc(OC)c(-c2cn3ccc(N[C@H]4C[C@H]5CC[C@@H](C4)N5C(=O)OC(C)(C)C)cc3n2)cc1Cl` , please?
Reply text: 0.078

Inquiry: Could you do the same for COc1cc(OC)c(-c2cn3ccc(N4CCCN(Cc5ccncc5)CC4)cc3n2)cc1Cl [Example 388, dihydrochloride] , please?
Reply text: 0.00505

Inquiry: Could you do the same for `COc1cc(OC)c(-c2cn3ccc(N[C@H]4CC[C@@H](NCc5ccc(C)cc5)CC4)cc3n2)cc1Cl` , please?
Reply text: 0.0388

Inquiry: Could you do the same for `COc1cc(OC)c(-c2cn3ccc(N[C@H]4CC[C@H](NCc5cccc(C)c5)CC4)cc3n2)cc1Cl` , please?
Reply text: 0.098

Inquiry: Could you do the same for COc1cc(OC)c(-c2cn3ccc(N4CCN(S(C)(=O)=O)CC4C)cc3n2)cc1Cl (centres unmarked) , please?
Reply text: 0.00494

----------
For each entry below, report its IC50 value.
# TEST TARGET: SUV39H2 (Homo sapiens (Human))
# CONDITION SUMMARY: read-out: IC50 (μM) Suv 39H2 assay; enzyme assay
Answer with a number only, understood to be in µM.

Inquiry: So what does the record say about IC50 for `COc1cc(OC)c(-c2cn3ccc(N4CCNC4=O)cc3n2)cc1Cl` ?
Reply text: 0.0201

Inquiry: Could you do the same for `COc1cc(OC)c(-c2cn3ccc(N4CCC(CCNC(=O)OC(C)(C)C)CC4)nc3n2)cc1Cl` , please?
Reply text: 0.00831

Inquiry: Could you do the same for `COc1cc(OC)c(-c2cn3ccc(N4CC[C@H](NCc5ccc([N+](=O)[O-])cc5)C4)cc3n2)cc1Cl` , please?
Reply text: 0.00888

Inquiry: Could you do the same for `COc1cc(OC)c(-c2cn3ccc(N4CCN(c5ccc(C#N)cn5)CC4)cc3n2)cc1Cl` , please?
Reply text: 0.0226

----------
For each entry below, report its IC50 value.
# Test system: CCD-18Co
# TEST: Cell-based assay, anti-proliferative activity (Cell Counting Kit-8, 72 hours)
# CONDITION SUMMARY: Homo sapiens; CCD-18Co cells, 72 hours, Cell Counting Kit-8; read-out: IC50 (μM) CCD-18Co
Structures can show the parent of a compound that is named as a salt.
Answer with a number only, understood to be in µM.

Inquiry: So what does the record say about IC50 for `COc1cc(OC)c(-c2cn3ccc(-c4ccc(C(=O)NCCCN)cc4)cc3n2)cc1Cl` ?
Reply text: 7.3

Inquiry: Could you do the same for `COc1cc(OC)c(-c2cn3ccc(N4CCN(C(=O)C5CC5)CC4)nc3n2)cc1Cl` , please?
Reply text: 10

Inquiry: Could you do the same for `CC[C@H](C)[C@H](NC)C(=O)Nc1ccn2cc(-c3cc(Cl)c(OC)cc3OC)nc2c1` , please?
Reply text: 1.3

Inquiry: Could you do the same for `COc1cc(OC)c(-c2cn3ccc(N[C@H]4CC[C@H](Nc5ccccn5)CC4)cc3n2)cc1Cl` , please?
Reply text: 0.81

Inquiry: Could you do the same for `COc1cc(OC)c(-c2cn3ccc(NC(=O)[C@@H]4CCCN4)cc3n2)cc1Cl` , please?
Reply text: 8.8

Inquiry: Could you do the same for `COc1cc(OC)c(-c2cn3ccc(N4CC[C@H](NCc5ccc([N+](=O)[O-])cc5)C4)cc3n2)cc1Cl` , please?
Reply text: 0.49

Inquiry: Could you do the same for `COc1cc(OC)c(-c2nc3cc(N4CCN(C(=O)OC(C)(C)C)CC4)ccn3c2I)cc1Cl` , please?
Reply text: 1.4

Inquiry: Could you do the same for `COC(=O)CCCN1CCN(c2ccn3cc(-c4cc(Cl)c(OC)cc4OC)nc3c2)CC1` , please?
Reply text: 10

Inquiry: Could you do the same for COc1cc(OC)c(-c2cn3ccc(-c4ccc(C(=O)[C@H](C)N)cc4)cc3n2)cc1Cl [Example 274, hydrochloride] , please?
Reply text: 1.5

Inquiry: Could you do the same for `CC[C@@H](C)[C@H](N)C(=O)Nc1ccn2cc(-c3cc(Cl)c(OC)cc3OC)nc2c1` , please?
Reply text: 4.6

Inquiry: Could you do the same for `COc1cc(OCCCN(C)C)c(-c2cn3ccc(N4CCN(S(=O)(=O)C(C)C)CC4)nc3n2)cc1Cl` , please?
Reply text: 10

Inquiry: Could you do the same for `COc1cc(OC)c(-c2cn3ccc(NC(=O)[C@H](C)NC(=O)OC(C)(C)C)cc3n2)cc1Cl` , please?
Reply text: 6.7

Inquiry: Could you do the same for `COc1ccc(CN[C@H]2CCN(c3ccn4cc(-c5cc(Cl)c(OC)cc5OC)nc4c3)C2)cc1` , please?
Reply text: 1.4

Inquiry: Could you do the same for `COc1cc(Cl)c(Cl)cc1-c1cn2ccc(N3CCCC3)cc2n1` , please?
Reply text: 2.8

All values here come from patent US10508109B2.
